# experimentalSystem: Stromelysin-1 (Homo sapiens, UniProt P08254)
# Sequence (P08254 whole entry): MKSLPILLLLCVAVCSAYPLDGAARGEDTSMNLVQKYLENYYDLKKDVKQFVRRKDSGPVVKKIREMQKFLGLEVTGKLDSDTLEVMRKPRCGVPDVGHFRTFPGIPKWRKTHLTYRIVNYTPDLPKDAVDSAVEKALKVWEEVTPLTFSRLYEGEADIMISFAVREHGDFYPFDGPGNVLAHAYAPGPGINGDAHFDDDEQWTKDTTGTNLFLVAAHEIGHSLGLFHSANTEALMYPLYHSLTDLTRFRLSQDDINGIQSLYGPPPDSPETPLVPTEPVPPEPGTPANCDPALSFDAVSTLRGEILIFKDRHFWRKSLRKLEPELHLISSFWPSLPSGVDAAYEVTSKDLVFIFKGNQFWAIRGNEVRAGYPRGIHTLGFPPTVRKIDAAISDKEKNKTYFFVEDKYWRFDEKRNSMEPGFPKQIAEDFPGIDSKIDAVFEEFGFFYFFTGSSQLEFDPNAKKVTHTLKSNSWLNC
measurementType: IC50 (nM)
Answers are plain numbers, in nM.

Sample O=C1[C@H](NS(=O)(=O)c2ccc(Oc3ccc(Cl)cc3)cc2)CC=C(CN2CCOCC2)CN1O ; IC50 observed: 39

###

Please go through the items and note down their inhibition at 1 µM.
# experimentalSystem: CYP2D6 (Homo sapiens, UniProt P10635)
# Sequence (P10635 whole entry): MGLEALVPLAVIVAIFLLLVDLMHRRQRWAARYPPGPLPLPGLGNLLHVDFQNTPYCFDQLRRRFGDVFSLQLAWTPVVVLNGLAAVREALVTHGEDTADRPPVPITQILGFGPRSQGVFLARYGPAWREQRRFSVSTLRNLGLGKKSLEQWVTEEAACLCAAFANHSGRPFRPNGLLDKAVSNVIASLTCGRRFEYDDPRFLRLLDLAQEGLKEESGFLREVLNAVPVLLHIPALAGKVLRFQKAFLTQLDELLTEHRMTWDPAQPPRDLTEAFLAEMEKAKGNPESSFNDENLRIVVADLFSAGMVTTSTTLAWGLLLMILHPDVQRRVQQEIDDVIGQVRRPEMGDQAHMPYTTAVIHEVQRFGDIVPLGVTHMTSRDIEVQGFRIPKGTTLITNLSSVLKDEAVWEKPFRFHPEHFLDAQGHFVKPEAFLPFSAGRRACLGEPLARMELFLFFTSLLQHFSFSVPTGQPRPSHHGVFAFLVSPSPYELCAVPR
# assayComment: Inhibition of CYP 2D6 at 1 uM
# Assay type: ADME

>  <compoundString>
O=C1[C@H](N(CCN2CCOCC2)S(=O)(=O)c2ccc(Oc3ccc(Cl)cc3)cc2)CC=CCN1O

>  <measurementType>
inhibition at 1 µM

>  <val>
< 50%

$$$$

Note: attention shifts to another entry.
Sample O=C1[C@H](NS(=O)(=O)c2ccc(Oc3ccc(Cl)cc3)cc2)CC=CCN1O ; inhibition at 1 µM observed: < 50%

###

# assayComment: AUC in rat at 0.5 mg/kg, iv
# Assay type: ADME, organism-based, Plasma
# Set-up: dose 0.5 mg/kg, route intravenous
# conditionInfo: plasma
measurementType: AUC (µg·h/mL)
Numbers only, in µg·h/mL.

Sample O=C1[C@H](NS(=O)(=O)c2ccc(Oc3ccc(Cl)cc3)cc2)CC=CCN1O ; AUC observed: 1.23

###

# assayComment: Cmax in rat at 0.5 mg/kg, iv
# Assay type: ADME, organism-based
# Design: dose 0.5 mg/kg, route intravenous
# conditionInfo: in vivo
measurementType: Cmax (µM)
Give bare numbers, in µM.

>  <compoundString>
O=C1[C@H](N(CCN2CCOCC2)S(=O)(=O)c2ccc(Oc3ccc(Cl)cc3)cc2)CC=CCN1O

>  <unitsOfMeasure>
µM

>  <Cmax>
4.4

$$$$

Note: attention shifts to another entry.
Sample O=C1[C@H](NS(=O)(=O)c2ccc(Oc3ccc(Cl)cc3)cc2)CC=CCN1O ; Cmax observed: 4.6

###

# experimentalSystem: CYP3A4 (Homo sapiens)
# Sequence (P08684 whole entry): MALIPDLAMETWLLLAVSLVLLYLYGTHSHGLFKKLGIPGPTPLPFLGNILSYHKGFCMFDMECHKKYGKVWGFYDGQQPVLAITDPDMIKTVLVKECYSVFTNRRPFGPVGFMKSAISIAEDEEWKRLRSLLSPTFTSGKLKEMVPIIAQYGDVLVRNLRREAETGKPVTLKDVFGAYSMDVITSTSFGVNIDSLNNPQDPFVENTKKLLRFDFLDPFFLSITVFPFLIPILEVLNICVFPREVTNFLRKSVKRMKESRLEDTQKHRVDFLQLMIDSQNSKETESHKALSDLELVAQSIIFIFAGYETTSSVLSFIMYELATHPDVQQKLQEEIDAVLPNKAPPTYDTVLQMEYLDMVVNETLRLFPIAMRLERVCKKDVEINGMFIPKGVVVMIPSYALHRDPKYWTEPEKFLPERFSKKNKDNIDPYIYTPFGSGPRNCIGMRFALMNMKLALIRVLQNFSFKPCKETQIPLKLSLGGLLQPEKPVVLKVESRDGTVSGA
# assayComment: Inhibition of CYP 3A4 at 1 uM
# Format: ADME
Please go through the items and note down their inhibition at 1 µM.

>  <compoundString>
O=C1[C@H](N(CCN2CCOCC2)S(=O)(=O)c2ccc(Oc3ccc(Cl)cc3)cc2)CC=CCN1O

>  <inhibition at 1 µM>
< 50%

$$$$

Sample O=C1[C@H](NS(=O)(=O)c2ccc(Oc3ccc(Cl)cc3)cc2)CC=CCN1O ; inhibition at 1 µM observed: < 50%

###

Please go through the items and note down their IC50.
# experimentalSystem: 72 kDa type IV collagenase (Homo sapiens)
# Sequence (P08253 whole entry): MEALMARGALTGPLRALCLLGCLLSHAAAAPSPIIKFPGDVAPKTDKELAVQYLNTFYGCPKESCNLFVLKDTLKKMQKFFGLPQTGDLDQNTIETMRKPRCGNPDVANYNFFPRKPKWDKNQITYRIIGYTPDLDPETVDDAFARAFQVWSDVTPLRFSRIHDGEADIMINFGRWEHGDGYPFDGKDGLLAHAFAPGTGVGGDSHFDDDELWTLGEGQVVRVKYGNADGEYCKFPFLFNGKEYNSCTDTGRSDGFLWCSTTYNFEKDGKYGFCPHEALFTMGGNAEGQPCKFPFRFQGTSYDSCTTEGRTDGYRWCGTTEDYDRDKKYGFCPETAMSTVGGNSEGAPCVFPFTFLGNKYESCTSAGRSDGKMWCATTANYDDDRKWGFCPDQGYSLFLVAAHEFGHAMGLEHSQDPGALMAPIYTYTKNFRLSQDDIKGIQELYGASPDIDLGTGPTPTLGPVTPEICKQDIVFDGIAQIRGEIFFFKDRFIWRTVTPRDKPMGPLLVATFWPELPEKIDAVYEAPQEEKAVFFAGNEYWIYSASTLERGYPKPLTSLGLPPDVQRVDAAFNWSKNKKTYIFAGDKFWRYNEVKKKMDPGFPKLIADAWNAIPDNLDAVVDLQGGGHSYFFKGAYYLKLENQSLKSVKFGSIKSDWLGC
One number for each entry, in nM.

>  <compoundString>
Cc1ccc(-c2ccc(S(=O)(=O)N(CCN3CCOCC3)[C@@H]3CC=CCN(O)C3=O)s2)cc1

>  <measurementType>
IC50

>  <unitsOfMeasure>
nM

>  <val>
7

$$$$

Quick one: give me IC50 for each item below, same order please.
1. O=C1[C@@H](NS(=O)(=O)c2ccc(Oc3ccc(Cl)cc3)cc2)CC=CCN1O
2. COc1ccc(Oc2ccc(S(=O)(=O)N[C@@H]3CC=CCN(O)C3=O)cc2)cc1
3. O=C1[C@H](NS(=O)(=O)c2ccc(Oc3ccccc3)cc2)CC=CCN1O
4. O=C1[C@H](NS(=O)(=O)c2ccc(Oc3ccc(Cl)cc3)cc2)CC=CCN1O

[1600, 2, 1, 0.57]

###

# assayComment: Volume of distribution at steady state in rat at 0.5 mg/kg, iv
# Format: ADME, organism-based
# Set-up: dose 0.5 mg/kg, route intravenous
# conditionInfo: in vivo, read-out: Vdss
measurementType: Vd (L/kg)
Answers are plain numbers, in L/kg.

Quick one: give me Vd for each item below, same order please.
1. O=C1[C@H](N(CCN2CCOCC2)S(=O)(=O)c2ccc(Oc3ccc(Cl)cc3)cc2)CC=CCN1O
2. O=C1[C@H](NS(=O)(=O)c2ccc(Oc3ccc(Cl)cc3)cc2)CC=CCN1O

1: 1.4; 2: 3.3

###

# assayComment: Clearance in rat at 0.5 mg/kg, iv
# Type: ADME, organism-based
# Set-up: dose 0.5 mg/kg, route intravenous
# conditionInfo: in vivo
measurementType: clearance
Answer format: value, then unit.

Sample O=C1[C@H](NS(=O)(=O)c2ccc(Oc3ccc(Cl)cc3)cc2)CC=CCN1O ; clearance observed: 7 mL/min/kg

###

Please consider the recorded pIC50 for 72 kDa type IV collagenase (Homo sapiens, UniProt P08253) in what follows.
Numbers only, as −log10 of the molar value.

Some compounds with known pIC50 results, for comparison:
>  <compoundString>
Cc1ccc(-c2ccc(S(=O)(=O)N[C@@H]3CC=CCN(O)C3=O)s2)cc1

>  <pIC50>
8.40

$$$$
>  <compoundString>
O=C1[C@H](NS(=O)(=O)c2ccc(Oc3ccc(Cl)cc3)cc2)CC=C(CN2CCOCC2)CN1O

>  <pIC50>
9.28

$$$$
>  <compoundString>
CC1=CC[C@@H](NS(=O)(=O)c2ccc(Oc3ccc(Cl)cc3)cc2)C(=O)N(O)C1

>  <pIC50>
8.70

$$$$
>  <compoundString>
O=C1[C@H](NS(=O)(=O)c2ccc(-c3ccc(Cl)cc3)cc2)CC=CCN1O

>  <pIC50>
7.07

$$$$

Note: attention shifts to another entry.
Sample O=C1[C@H](NS(=O)(=O)c2ccc(-c3ccc(Cl)cc3)s2)CC=CCN1O ; pIC50 observed: 7.96

###

# experimentalSystem: UniProtKB P14780
# Sequence (P14780 whole entry): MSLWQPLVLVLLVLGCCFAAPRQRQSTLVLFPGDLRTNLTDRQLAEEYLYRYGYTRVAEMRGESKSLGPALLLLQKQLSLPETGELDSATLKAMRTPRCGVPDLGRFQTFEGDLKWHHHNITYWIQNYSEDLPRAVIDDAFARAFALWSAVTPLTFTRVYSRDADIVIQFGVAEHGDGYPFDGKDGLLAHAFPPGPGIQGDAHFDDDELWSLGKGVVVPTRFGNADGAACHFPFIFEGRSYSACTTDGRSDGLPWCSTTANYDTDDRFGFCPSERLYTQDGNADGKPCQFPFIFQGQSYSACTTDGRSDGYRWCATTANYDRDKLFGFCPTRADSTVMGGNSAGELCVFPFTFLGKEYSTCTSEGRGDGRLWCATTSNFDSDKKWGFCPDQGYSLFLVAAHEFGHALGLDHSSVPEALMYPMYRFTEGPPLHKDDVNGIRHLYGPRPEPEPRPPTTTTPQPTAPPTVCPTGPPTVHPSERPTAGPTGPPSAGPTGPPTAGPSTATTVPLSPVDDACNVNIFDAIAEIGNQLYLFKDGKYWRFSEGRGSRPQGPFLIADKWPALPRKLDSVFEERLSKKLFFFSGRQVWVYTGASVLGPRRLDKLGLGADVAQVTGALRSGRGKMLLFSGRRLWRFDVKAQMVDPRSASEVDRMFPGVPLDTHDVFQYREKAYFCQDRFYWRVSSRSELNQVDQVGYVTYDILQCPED
measurementType: IC50 (nM)
Numbers only, in nM.

Some molecules with known IC50 results, for comparison:
>  <compoundString>
O=C1[C@H](N(CCN2CCOCC2)S(=O)(=O)c2ccc(-c3ccc(Cl)cc3)s2)CC=CCN1O

>  <experimentalSystem>
UniProtKB P14780

>  <unitsOfMeasure>
nM

>  <IC50>
17

$$$$
>  <compoundString>
O=C1[C@H](NS(=O)(=O)c2ccc(Oc3ccc(Cl)cc3)cc2)CCCCN1O

>  <experimentalSystem>
UniProtKB P14780

>  <unitsOfMeasure>
nM

>  <IC50>
5.9

$$$$

Quick one: give me IC50 for each item below, same order please.
1. O=C(N[C@@H]1CC=CCN(O)C1=O)c1ccc(Oc2ccc(Cl)cc2)cc1
2. COc1ccc(Oc2ccc(S(=O)(=O)N[C@@H]3CC=CCN(O)C3=O)cc2)cc1
3. O=C1[C@H](NS(=O)(=O)c2ccc(-c3ccc(Cl)cc3)s2)CC=CCN1O
4. O=C1[C@H](N(CCN2CCOCC2)S(=O)(=O)c2ccc(Oc3ccc(Cl)cc3)cc2)CC=CCN1O
5. Cc1ccc(-c2ccc(S(=O)(=O)N(CCN3CCOCC3)[C@@H]3CC=CCN(O)C3=O)s2)cc1

[5090, 1, 16, 0.22, 11]

Quick one: give me IC50 for each item below, same order please.
1. O=C1[C@H](NS(=O)(=O)c2ccc(-c3ccc(Cl)cc3)cc2)CC=CCN1O
2. CC1=CC[C@@H](NS(=O)(=O)c2ccc(Oc3ccc(Cl)cc3)cc2)C(=O)N(O)C1
3. O=C1[C@H](NS(=O)(=O)c2ccc(Oc3ccc(Cl)cc3)cc2)CC=CCN1O

1. 1510
2. 1.3
3. 0.58

###

# assayComment: Cmax in mouse at 10 mg/kg, po
# Assay type: ADME, organism-based
# Parameters: dose 10 mg/kg, route oral
# conditionInfo: in vivo
measurementType: Cmax
Answer format: value, then unit.

Sample O=C1[C@H](N(CCN2CCOCC2)S(=O)(=O)c2ccc(Oc3ccc(Cl)cc3)cc2)CC=CCN1O ; Cmax observed: 38.3 µM
